target: glutathione S-transferase [GST: P08515]; experiment: indirect ELISA, GST coated
Sequence (P08515 whole entry): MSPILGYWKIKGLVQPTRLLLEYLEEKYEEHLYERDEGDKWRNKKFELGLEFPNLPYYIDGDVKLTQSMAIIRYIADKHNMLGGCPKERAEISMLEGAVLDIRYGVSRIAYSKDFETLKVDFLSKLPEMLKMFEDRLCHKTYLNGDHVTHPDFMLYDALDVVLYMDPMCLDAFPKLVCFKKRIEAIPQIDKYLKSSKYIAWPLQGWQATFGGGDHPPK
Catalogue of ELISA affinity (LogIC50 (oD450nm)) values

G8 (VHH) VHH: QVQLVESGGGLVQAGGSLRLSCAASGITSSIASMGWFRQAPGKEEEFVARIRWNTDNTYYADSVKGRFTISRDNAQNTVYLQMNRLKPEDTAVYYCVARRGWSDLLYDYRGQGTQVTVSS	4.66

For the next question, use this binder.
// returns reported ELISA affinity (LogIC50 (oD450nm)) for input G52 (VHH) VHH: EVQLVESGGGLVQAGGSLRLSCAASGSTFSSKPIGWYRQAPGKGRDLVAAIGGGSSTFYVDSVKGRFTMSRDNAKNTVALQMNSLKPEDTAVYYCNEYLGPKVLPIGSWGQGTQVTVSS
1
